Readings of cytotoxicity at 70.5 h for the listed molecules
Test: Human HepG2 cell viability assay in 384 well format
Type: toxicity, cell-based
Set-up: dose 125 nL, time 70.5 hour; concentration not given beside the values
Conditions: HepG2 cells, read-out: Inhibition
observable: cytotoxicity at 70.5 h (%)

CN(C(=O)CN1CCOC(Cn2cccn2)C1)c1nccs1 (stereo not given) : 9.89
Cc1ccc(C)n1C(C)C(=O)N1CCCN(Cc2cscn2)CC1 (stereo not given) : -0.61
N#Cc1cn(C2CC2)c(=O)n(CC(O)c2ccccc2F)c1=O (stereo not given) : -17
CN(C)c1ncccc1CNC(=O)N(Cc1ccccc1F)C1CC1 : -4.47
O=C(O)c1nnn(-c2ccc(C(F)(F)F)cc2)c1-c1ccncc1 : -26.2
COc1ccc(CCCC(=O)N2CCCC(n3cncn3)C2)cc1 (stereo not given) : -2.82
O=C(NCc1cccnc1-n1cncn1)c1cncc(Br)c1 : 0.0598
COc1c(CNCc2ccccc2CN2CCOCC2)c(C)nn1C : -7.68
Cc1cc(C[S+]([O-])CC(=O)NCc2ccccc2)no1 (stereo not given) : -5.28
FC(F)(F)c1ccccc1CN1CCOC[C@H](Oc2cccnc2)C1 : 1.03
OCC1CCCN1c1cc(N2CCN(c3ccccn3)CC2)ncn1 (stereo not given) : -9.58
Cc1cc(C(N)=O)c2c(Br)cccc2n1 : -13.6
COc1cc(C)c2c(c1C)C[C@H]([C@H](C)C(=O)O)CC2 : -3.45
CCc1nnc2n1CCN(CC(O)CN1CCC(C)CC1)C2 (stereo not given) : 2.99
O=S(=O)(NCc1ccccc1)N1CCCN(c2ccncc2)CC1 : 28.7
O=C1NCC2(CCCN(C(=O)Cn3nc4ccccc4n3)CC2)O1 (stereo not given) : 29.9
COc1nn(C)c2c1CCCN(C(=O)c1ccsc1)C2 : -108
Cc1cc(CNc2cccc(C(=O)N(C)c3ccccc3)c2)no1 : -0.804
O=C(NCCOc1cccc(Cl)c1)C1CC(=O)N(CC2CC2)C1 (stereo not given) : 40.6
COc1cc(C2CC(=O)Nc3c2cnn3C)ccc1O (stereo not given) : 46.1
CCOCC1CC2(CCN(C(=O)C3CC=CC3)CC2)CO1 (stereo not given) : -8.99
N#Cc1ccsc1NC(=O)CN1CCOC(Cn2cccn2)C1 (stereo not given) : 11
Cc1ccc(N2CCN(C(=O)COc3nccc(C)n3)CC2)nn1 : 16
CC(C)Cc1cc(C(=O)NCCn2nc3ccccn3c2=O)[nH]n1 : -3.87
CC(C)CNC(=O)N1CCC2(CC1)OC(C(N)=O)Cn1ccnc12 (stereo not given) : -4.1

---

Readings of cytotoxicity at 70.5 h for the listed compounds
Assay: Human HepG2 cell viability assay in 384 well format
Format: toxicity, cell-based
Design: dose 125 nL, time 70.5 hour; concentration not given beside the values
Conditions: HepG2 cells, read-out: Inhibition
observable: cytotoxicity at 70.5 h (%)

Cc1ccc(C)c2c(O)cc(CNCC(=O)N3CCCC3)nc12 : 22
CNc1ncc(-c2ccnn2C2CCN(C(C)=O)CC2)cn1 : -7.63
COc1ccccc1CCNS(=O)(=O)N1CCOCC1 : -11.8
COCCCN1CCC(c2nc3c([nH]2)CC(C)(C)CNC3=O)C1 (stereo not drawn) : -5.24
O=C(COCc1ccccc1Cl)N1CCN(c2ccc(Br)cn2)CC1 : -4.89
CCc1cc(N(C)Cc2noc(CC(C)C)n2)ncn1 : 21.2
Cc1cccc(CC(=O)Nc2cccnc2N2CCC(CO)CC2)c1 : -2.43
CC(C)NC(=O)N1CCCCC1c1nnc2n1CCNC2 (stereo not drawn) : 20.4
Cn1ccnc1C(=O)N1C[C@@H]2CCN(c3cnccn3)C[C@@H]2C1 : -7.28
O=C(NCc1cccnc1)[C@H]1CC[C@@H]2[C@@H](CCN2c2ncccn2)O1 : -6.01
NC(=O)c1nc(-c2cccc(Cl)c2)oc1N : -14.1
Cc1ccc(-c2cc(CNC(=O)N3CCCN(C)CC3)on2)cc1 : 2.1
CC(Cn1cccn1)NCc1csc(-c2ccccc2)n1 (stereo not drawn) : -3.84
COCC1CN(Cc2cc(C)on2)Cc2cn(CC3CC3)nc21 (stereo not drawn) : -1.87
Cc1ccc(CN2CCC3(CC(C(=O)NCC4CC4)=NO3)C2)s1 (stereo not drawn) : -8.89
CNC(=O)c1cccnc1N1CCC(Oc2ccc(F)cc2)CC1 : -14.2
CC(C)c1ncc2c(n1)CN(CC(=O)Nc1ccncc1)CC2 : -7.98
CC(C)(C)C(=O)N1C[C@H](c2ccsc2)[C@H]2CN(C3CCCCC3)CC[C@H]21 : -3.27
Cc1nnc(CN2CCC(Oc3ccc(F)cc3)CC2)o1 : 0.0555
c1cnc(N2CCO[C@H]3CN(CC4CCOCC4)C[C@H]32)nc1 : -3.7
Cc1csc(N2CCCN(C(=O)c3csc(C)n3)CC2)n1 : -10.6
O[C@H]1CN(Cc2ccnc(N3CCCC3)n2)CC[C@@]12CCCO2 : -9.21
Cc1nn(C)c2c(N3CCN(C(=O)C(C)C)CC3)ncnc12 : -5.46
O=C(CNC1CCc2ncnn2C1)NCCc1cccs1 (stereo not drawn) : 2.68
c1ccc(CN2C[C@@H]3OCCN(CC4CCCO4)[C@@H]3C2)nc1 (stereo partly drawn) : -9.93
O=S1(=O)CCC(n2nc(Cc3cccs3)nc2-c2cnccn2)C1 (stereo not drawn) : 0.418
CNC(=O)c1cn[nH]c1C1CCCN1C(=O)c1cccnc1 (stereo not drawn) : -4.17
COc1cc(F)ccc1C(C(=O)O)N(C)CCN1CCCC1 (stereo not drawn) : 12.1
c1cncc(-c2nccc(CN3CCC(N4CCCCC4)CC3)n2)c1 : 18.5
O=S(=O)(NCCc1nnc2ccccn12)c1cccnc1 : 14.7
COCC(NC(=O)NCc1sccc1C)c1ccco1 (stereo not drawn) : 1.36
Cc1ccc(Oc2ncccc2C(=O)N(C)CC2OCCO2)c(C)c1 : -4.31
CC[C@H](N)Cn1nc(-c2cccs2)oc1=O : -26.2
O=C(c1ccsc1)N1CCO[C@@H]2CN(Cc3nccs3)C[C@@H]2C1 : -3.17
O[C@@H]1CN(Cc2ccc(F)cc2)CC[C@H]1NCc1ccccn1 : 15.4
CO[C@H]1CCN(S(=O)(=O)c2cccs2)[C@H]1Cc1cccnc1 : 2.3
CNC(=O)c1sc2ccccc2c1CC1CCCCN1Cc1ncc[nH]1 (stereo not drawn) : -7.25
COc1ccc(CNC(=O)N2CCOCC2C2CC2)c(C)c1 (stereo not drawn) : -6.07
CCOCc1ncn2c1CN(C(=O)c1ccoc1)CC2 : -12.2
CNC(=O)c1ccc(C(=O)N2CCCCC2Cn2cc(C)cn2)cn1 (stereo not drawn) : -5.34
O=C(CNC1CCc2ncnn2C1)N(C1=CCCCC1)C1CC1 (stereo not drawn) : -2.56
COCc1ccccc1C(=O)NS(=O)(=O)CCCC#N : -3.12
CC1Cc2cc(-c3cncn3CC(=O)NC(C)(C)C)ccc2N1C (stereo not drawn) : -7.08
CC(=O)NCC1CCN(C(=O)NCCc2ccc(Cl)s2)CC1 : -6.89
CSCCC(=O)N1CCN(CC(C)(C)O)CC1 : -13.7
CC(C)(O)CCc1cccc(C(=O)NCc2nccs2)c1 : 3.29
CC(C)CC(=O)N1CCC(c2nnc3n2CCCCC3)CC1 : -0.981
CN(Cc1nnc(-c2ccco2)o1)C1CCCN(c2cccnn2)C1 (stereo not drawn) : 36.8

---

Assay: Human HepG2 cell viability assay in 384 well format
Format: toxicity, cell-based
Set-up: dose 125 nL, time 70.5 hour; concentration not given beside the values
Conditions: HepG2 cells, read-out: Inhibition
observable: cytotoxicity at 70.5 h (%)

Cc1nc(COC(=O)c2cccnc2C)no1 : -5.39
COc1cc(Oc2ncccc2C(F)(F)F)ccc1CN1CCCC1 : 4.5
COCc1ccccc1CNC(=O)CNc1cccc(Cl)c1OC : -2.8
CCc1n[nH]c(C2CN(Cc3nnc(C4CC4)n3C)CCO2)n1 (stereo unspecified) : 27.9
CC(=O)N1CCC2(CC1)c1ncc(-c3cccnc3)n1CCN2C : 0.401
Cc1noc(CN2CCCC(Cn3nc(C)nc3C)C2)n1 (stereo unspecified) : -6.06

---

Test: Human HepG2 cell viability assay in 384 well format
Assay type: toxicity, cell-based
Parameters: dose 125 nL, time 70.5 hour; concentration not given beside the values
Conditions: HepG2 cells, read-out: Inhibition
observable: cytotoxicity at 70.5 h (%)

Cc1cc(C(C)NC(=O)Cn2nc(C)c3ccccc3c2=O)c(C)o1 (stereo unspecified) : 18.3
COCC(C)N(C)C(=O)c1nc(S(C)(=O)=O)n2ccccc12 (stereo unspecified) : -0.102
CC(C)CC(NC(=O)c1cc(C2CC2)n[nH]1)c1ncnn1C (stereo unspecified) : 20.9
Cc1cc(N2CCCC(c3n[nH]c4ncccc34)C2)ncn1 (stereo unspecified) : -4.69
O=C(NCCN1CCOCC1)N1CCN(c2ccccc2)CC1 : -10.1
c1ccc(Cc2nnc(CN3CCn4c(nnc4C4CC4)C3)o2)cc1 : -13.3
